Subject Of Test: Cytochrome P450 2C19 (Homo sapiens)
Method Notes: Cytochrome panel assay with activity outcomes
Assay Conditions: recombinant CYP, pro-luciferin dealkylation, luminescence, p450-cyp2c19; series mostly up to 57.1 µM
About 5,800 (36%) of roughly 16,000 compounds were called active. Inconclusive results (about 23%) are left out. This is one part of the list.
Measurement Kind: AC50

Example cases with answers are listed next.
{"columns": ["Compound", "AC50"],
 "data": [
  ["CCC(Sc1nc2n[nH]c(C)c2c(=N)n1-c1cccc(Cl)c1)C(=O)NCCOC (stereo not given)", "10 µM (active)"],
  ["COCC(=O)N1CCC2(CC1)CCN(C(=O)Nc1ccc(OC)cc1)CC2", "inactive"],
  ["CC(=O)N(C[C@@H](C)C(=O)O)c1c(I)cc(I)c(N)c1I", "inactive"],
  ["CN(C)c1ncc2nc(-c3cccs3)c(=O)n(C[C@H]3CCCO3)c2n1", "inactive"]
]}

Okay, next one:
In: # input compound: N#CC1=C(N)OC2=C(C(=O)CCC2)C12CCC1(CC2)OCCO1 ; wanted: its AC50
Out: inactive

* * *

Subject Of Test: Cytochrome P450 2C19 (Homo sapiens) (UniProt P33261)
Sequence (P33261 whole entry, looked up): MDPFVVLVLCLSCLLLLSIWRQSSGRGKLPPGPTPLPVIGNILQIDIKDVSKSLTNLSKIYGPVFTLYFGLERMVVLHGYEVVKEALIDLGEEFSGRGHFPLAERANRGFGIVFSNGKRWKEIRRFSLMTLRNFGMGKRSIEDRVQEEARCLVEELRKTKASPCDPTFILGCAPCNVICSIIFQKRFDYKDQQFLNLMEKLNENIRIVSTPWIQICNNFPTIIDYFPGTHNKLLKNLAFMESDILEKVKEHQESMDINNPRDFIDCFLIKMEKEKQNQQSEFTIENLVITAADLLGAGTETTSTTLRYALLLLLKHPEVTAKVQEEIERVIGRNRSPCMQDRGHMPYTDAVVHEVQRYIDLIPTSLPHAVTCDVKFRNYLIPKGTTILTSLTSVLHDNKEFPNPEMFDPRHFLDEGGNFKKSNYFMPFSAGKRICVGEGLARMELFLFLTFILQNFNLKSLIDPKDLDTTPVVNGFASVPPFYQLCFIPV
Method Notes: Cytochrome panel assay with activity outcomes
Assay Conditions: recombinant CYP, pro-luciferin dealkylation, luminescence, p450-cyp2c19; series mostly up to 57.1 µM
Description: The P450 gene superfamily is involved in the metabolism and clearance of xenobiotics. This assay used various human CYP P450 isozymes to measure the dealkylation of various pro-luciferin substrates to luciferin. The luciferin is then measured by luminescence after the addition of a luciferase detection reagent. […] Inhibitors and some substrates limit the production of luciferin, and decrease measured luminescence. […] 8, Detection, 1 sec, ViewLux luminescent read […]
About 5,800 (36%) of roughly 16,000 compounds were called active. Roughly 23% stayed inconclusive and do not appear here. Calls come from the whole dose curve; as a rule, active = well fitted curve in the direction sought with a large enough effect; inconclusive = small, poorly fitted or top-dose-only effect, or effect the other way; inactive = no such curve, though single readings can be large or run the other way. This is one part of the list.
Thanks in advance; please answer with one of these: active, inactive

{"columns": ["Compound", "Subject Of Test", "Assigned Label"],
 "data": [
  ["CCOc1cc(C2CC(=O)c3c(ccc4ccccc34)N2)ccc1O (stereo unspecified)", "Cytochrome P450 2C19 (Homo sapiens) (UniProt P33261)", "active"],
  ["CCOc1ccc2ccccc2c1C(=O)N[C@@H]1C(=O)N2[C@@H]1SC(C)(C)[C@@H]2C(=O)O", "Cytochrome P450 2C19 (Homo sapiens) (UniProt P33261)", "inactive"],
  ["Cc1ccc(C(C(=O)NC2CCCCC2)N2CCN(C(=O)c3ccco3)CC2)cc1 (stereo unspecified)", "Cytochrome P450 2C19 (Homo sapiens) (UniProt P33261)", "active"],
  ["CC(C)Cn1c(-c2nn(C)cc2Cl)n[nH]c1=S", "Cytochrome P450 2C19 (Homo sapiens) (UniProt P33261)", "active"],
  ["COc1ccccc1CNC(=O)CCN1C(=O)COc2ccc(C)cc21", "Cytochrome P450 2C19 (Homo sapiens) (UniProt P33261)", "active"]
]}

For the next question, use this compound.
In: Please indicate how the test categorized O=C(O)CSc1cc(C(F)(F)F)nc(-c2ccccn2)n1 .
Out: inactive

* * *

Subject Of Test: Cytochrome P450 2C19 (Homo sapiens)
Method Notes: Cytochrome panel assay with activity outcomes
Assay Conditions: recombinant CYP, pro-luciferin dealkylation, luminescence, p450-cyp2c19; series mostly up to 57.1 µM
Among all 16,000 compounds or so, about 5,800 (36%) were called active. Roughly 23% stayed inconclusive and do not appear here. Calls come from the whole dose curve; as a rule, active = well fitted curve in the direction sought with a large enough effect; inconclusive = small, poorly fitted or top-dose-only effect, or effect the other way; inactive = no such curve, though single readings can be large or run the other way. Some of the results follow.
Thanks in advance; please answer with one of these: active, inactive

Consider the worked cases shown below.
{"columns": ["Molecule", "Assigned Label"],
 "data": [
  ["O=c1oc2c(CN3CCOCC3)c(O)ccc2c2ccccc12", "active"],
  ["C[n+]1cc2c3c(ccc2c2ccc4cc5c(cc4c21)OCO5)OCO3", "active"]
]}

In: Please indicate how the test categorized Cc1ccc(Cl)cc1N1CCN(S(=O)(=O)c2ccc3c(c2)OCCO3)CC1 .
Out: active

In: Please do the same for c1csc(CNc2nc(-c3ccc4c(c3)OCO4)nc3ccccc23)c1 as well.
Out: active

In: Please do the same for CC(C)NC(=O)N1CCCC2(CCN(C(=O)c3csnn3)CC2)C1 as well.
Out: inactive

In: Please do the same for COc1cccc2c1C(=O)c1c(O)c3c(c(O)c1C2=O)C[C@](O)(C(=O)CO)C[C@H]3O[C@@H]1C[C@H](N)[C@H](O)[C@H](C)O1 as well.
Out: inactive

In: Please do the same for CCCCOC(OCCCC)[C@H](O)CSc1ccc2ccccc2c1 as well.
Out: active

In: Please do the same for CN(N=O)C(=O)N[C@H]1[C@@H](O)[C@H](O)[C@H](CO)O[C@@H]1O as well.
Out: inactive

In: Please do the same for Cc1cc(C)n2nc(SCc3cc(=O)oc4ccc5ccccc5c34)nc2n1 as well.
Out: active

In: Please do the same for Cc1ccc2nc(N3CCN(S(=O)(=O)c4ccc5c(c4)OCCO5)CC3)c(C#N)cc2c1 as well.
Out: active

In: Please do the same for Cn1c(=O)c(-c2cccs2)nc2cncnc21 as well.
Out: inactive

In: Please do the same for C=CCn1c(C)cc(C(=O)CN2C(=O)c3ccccc3C2=O)c1C as well.
Out: active

In: Please do the same for CC(=O)N1c2ccc(S(=O)(=O)CCC(=O)O)cc2CC1C (stereo not drawn) as well.
Out: inactive
